Data origin, for the record: the supplement of paper PMC12338614

B1: library; numbered along this chain (parent)
chain: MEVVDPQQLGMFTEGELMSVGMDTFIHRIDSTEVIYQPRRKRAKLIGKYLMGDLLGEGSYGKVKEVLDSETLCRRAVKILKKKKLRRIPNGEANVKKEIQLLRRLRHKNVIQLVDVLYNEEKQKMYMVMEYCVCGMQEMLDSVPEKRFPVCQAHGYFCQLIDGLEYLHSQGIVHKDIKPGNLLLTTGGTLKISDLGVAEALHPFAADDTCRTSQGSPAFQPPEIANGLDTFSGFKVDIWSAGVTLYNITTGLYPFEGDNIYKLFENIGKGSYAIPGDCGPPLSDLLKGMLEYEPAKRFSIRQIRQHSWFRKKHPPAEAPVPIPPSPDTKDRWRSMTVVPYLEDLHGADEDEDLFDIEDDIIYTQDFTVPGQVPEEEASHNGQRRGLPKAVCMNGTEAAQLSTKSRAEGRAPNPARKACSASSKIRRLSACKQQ

# Variants of: B1
# measurementDescription: STK11 functional score (HeLa growth suppression), rescaled enrichment; synonymous median = 1, nonsense median = 0 (normalised score)
# measurementSetup: with HeLa; variant type: missense
// reported STK11 functional score for each item listed
Number only, please.

Consider the reported STK11 functional score for these variants:
# variantDesignation, STK11 functional score
records = [
    ("L45S", 1.36),
    ("L85A", 1.62),
    ("Q220S", 1.21),
]

Lab book: STK11 functional score of `L80R` noted as 0.408
